Details: Liquid
Measured Parameter: Critical pressure (kPa)
Form entry: value (kPa) — number only.

Use these answered entries as a reference point.
COCC(F)(F)C(F)(F)C(F)(F)C(F)F; 2392
COC(F)(F)C(F)(F)C(F)F; 3032
FC(F)OCC(F)(F)F; 3457

Next molecule, Critical pressure to be filled in.
Data request: Look up and report measured Critical pressure for this entry: FC(F)C(F)(F)COC(F)(F)C(F)C(F)(F)F (centres undefined)
Data returned: 2172

----------
Conditions: 422.92 K; Liquid
This section presents compounds with their documented vapor or sublimation pressure values.
Form entry: value (kPa) — number only.

Use these answered entries as a reference point.
COCC(F)(F)C(F)(F)C(F)(F)C(F)F; 320.1
FC(F)COC(F)(F)C(F)F; 723.9

Data request: Look up and report measured vapor or sublimation pressure for this entry: "FC(F)C(F)(F)OCC(F)(F)F"
Data returned: 1260.9

Data request: Look up and report measured vapor or sublimation pressure for this entry: "COCC(F)(F)C(F)(F)C(F)(F)F"
Data returned: 820.3

Values from the NIST ThermoML archive (doi:10.1021/je0201976)
